system: TK-10 renal; assay: NCI-60 one-dose screen, 48 h (100 = growth as untreated, 0 = no growth, -100 = all killed); details: 10 µM unless noted
The panel holds about 83,000 compounds, 20% with a hit somewhere; the sample as a whole holds those more often.
Examples of molecules with documented growth follow.
Report the value in % with no unit label.

Below, 8 molecules whose answers are already recorded.
{"SMILES INPUT": "COc1cccc(C(=O)NNc2nc(Cl)nc(Cl)n2)c1", "growth / %": 104}
{"SMILES INPUT": "Cc1ccc(S(=O)(=O)N2CCC(=O)c3ccccc32)cc1", "growth / %": 89.1}
{"SMILES INPUT": "CCNc1ccc(-c2nc3ccccc3n3cccc23)cc1", "growth / %": 82.7}
{"SMILES INPUT": "C=C(C)[C@@H]1CC[C@]2(C(=O)N3CCN(C)CC3)CC[C@]3(C)[C@H](CC[C@@H]4[C@@]5(C)CC[C@H](OC(=O)c6ccccc6C(=O)O)C(C)(C)[C@@H]5CC[C@]43C)[C@@H]12", "growth / %": 106}
{"SMILES INPUT": "NC(=O)c1c(NC(=O)c2cccc(C(F)(F)F)c2)sc2c1CCC(=O)C2", "growth / %": 5.23}
{"SMILES INPUT": "C#CCOc1cccc(-c2ncnc3cc(NC(=O)C=C)ccc23)c1", "growth / %": 13.8}
{"SMILES INPUT": "O=C(O)c1ccc(-c2ccc(/C=N/Nc3nc(Nc4ccccc4)nc(N4CCCCC4)n3)o2)cc1", "growth / %": 41.8}
{"SMILES INPUT": "Cc1ccc(C=C2C(=O)NC(=O)NC2=O)cc1", "growth / %": 97.8}

Proceed to the following item.
What value of growth has been recorded for this entry: COc1cc2c(cc1OCCCCN1CCN(C(=S)SCCC(C#N)(c3ccccc3)c3ccccc3)CC1)N=C[C@@H]1CCCN1C2=O -79.6

* * *

test system: MOLT-4 leukemia; assay: NCI-60 one-dose screen, 48 h (100 = growth as untreated, 0 = no growth, -100 = all killed); conditions: 10 µM unless noted
The panel holds about 83,000 compounds, 20% with a hit somewhere; the sample as a whole holds those more often.
# growth per record follows
Write it as a number; the unit % goes unstated.

{"MOLECULE": "COC(=O)c1c2c(c(C)[n+]([O-])c1C)C(=O)C(NCc1cccc(Cl)c1)=CC2=O", "SYSTEM": "MOLT-4 leukemia", "EXPERIMENTAL RESULT": -12.6}

// switching to the query molecule
Write down the reported growth of C#CCO[C@H]1CC(CC#C)(CC#C)C(=O)[C@@H]2[C@H]1[C@H]1C[C@@H]3[C@@]4(C)CCC[C@@](C)(C(=O)OC)[C@@H]4CC[C@@]23C=C1C(C)C , test system: MOLT-4 leukemia. 76.7

* * *

Tested on: OVCAR-4 ovarian
Assay: NCI-60 one-dose screen, 48 h
Settings: 10 µM unless noted
Procedure: Growth inhibition of the OVCAR-4 human tumor cell line is measured as a screen for anti-cancer activity. Cells are grown in 96 well plates and exposed to the test compound for 48 hours. Compounds are tested at a single concentration, which is 10^-5 M for most compounds. The reported endpoint is percent growth (GI% or GIPRCNT), where numbers from 0 - 100% represent growth inhibition, and numbers from -100% - 0 represent cell death. For example, a value of 40 represents 60% growth inhibition. […]
The panel holds about 83,000 compounds, 20% with a hit somewhere; the sample as a whole holds those more often. Calls of active or inactive are those of the source. The calls were made as follows: active = growth percent below 10; inactive = the rest.
Hello, when you answer, please use one of the following outcomes: 1 = active, 0 = inactive

Name the outcome recorded for Cc1nc2ccccc2c(/C=C/c2ccccc2)c1C(=O)/C=C/c1ccccc1 in the assay. 0

Dear all, I need the recorded test outcome for CC(=O)c1sc2sc(C(C)=O)c(C)c2c1C , thank you. 0

Name the outcome recorded for Cn1cc(-c2ccc(-c3cn(C)c4ccc(Cl)cc34)[nH]2)c2cc(Cl)ccc21 in the assay. 1

Which outcome did this test record for the compound CC(C)(C)n1cc(-c2ccnc(NCCNS(=O)(=O)c3ccc(O)cc3)c2)c(-c2cccc(O)c2)n1 ? 0

Can you look up the reported call for Cc1n[nH]c2ccc(Br)cc2c1=O for me? 0

Assay result, entry COC(=O)c1cc(Br)ccc1O — outcome? 0

What was the test verdict on Cn1c2c(c3ccc(Cl)c(Cl)c31)C(C#N)C(C)(C)NC2=O (stereo unspecified) ? 0

Identify the outcome logged in this assay for the compound shown: COc1cccc(-c2cc(-c3cccc(Cl)c3)c(C#N)c(=O)[nH]2)c1 0

# lookup: test call for CCN1CCN(CCNc2nccc(-c3c(-c4ccc(F)c(OC)c4)nc4sccn34)n2)S1(=O)=O 0

Check the results log: what was the call for O=C(c1c[nH]c2ccccc12)c1n[nH]c(=S)n1-c1cccc(Br)c1 ? 0

Please state the recorded outcome for this compound: COc1ccc(C(=S)N2CCN(c3ccc(Cl)cc3)CC2)cc1 0

* * *

tested on: UACC-257 melanoma; experiment: NCI-60 one-dose screen, 48 h (100 = growth as untreated, 0 = no growth, -100 = all killed); settings: 10 µM unless noted
This is part of a sample that, as a whole, favours compounds with a hit. Of some 83,000 tested, about 20% had one in any assay. Activity calls are given as the source filed them. How the source made its calls: active means growth percent below 10; inactive means the rest.
Listed compounds paired with reported growth

Please review the entries below; each comes with its answer.
{"SMILES INPUT": "O=S(=O)(NCCCNc1nccc(-c2c(-c3cccc(F)c3)nc3occn23)n1)c1ccc(F)cc1", "REPORTED METRIC": "growth", "EXPERIMENTAL RESULT": "43.6% (inactive)"}
{"SMILES INPUT": "Cc1ccc(S(=O)(=O)OCCCOS(=O)(=O)c2ccc(C)cc2)cc1", "REPORTED METRIC": "growth", "EXPERIMENTAL RESULT": "81.1% (inactive)"}
{"SMILES INPUT": "CCCCNC(=O)Oc1ccc(/C(=C(/C)Cc2ccc(OC)cc2)c2ccc(OCCN3CCCCC3)cc2)cc1", "REPORTED METRIC": "growth", "EXPERIMENTAL RESULT": "99.2% (inactive)"}

Field: growth (UACC-257 melanoma). Entry: CC1(C)CC2=C3C=C[C@@H]4[C@@]5(C)CCC(=O)C(C)(C)[C@@H]5CC[C@@]4(C)[C@]3(C)CC[C@@]2(C(=O)O)C[C@H]1O 10.5% (inactive)

Report growth for Nc1ccc(-c2csc(-n3[nH]c(=O)ccc3=O)n2)cc1 tested on UACC-257 melanoma. 103% (inactive)

I'm curious: which growth was measured for COc1cc(-c2nc3sccn3c2-c2ccnc(NCCNS(=O)(=O)c3ccc(Cl)cc3)n2)ccc1F tested on UACC-257 melanoma? 45.1% (inactive)

Request - read-out growth | tested on UACC-257 melanoma | compound COc1ccc(C(=O)Cn2c(C(=O)c3ccc(Cl)cc3)nc3ccccc32)cc1 70.8% (inactive)

Which measured growth belongs to C=C(C)[C@@H]1CC[C@]2(C(=O)N3CCN(C)CC3)CC[C@]3(C)[C@H](CC[C@@H]4[C@@]5(C)CC[C@H](OC(=O)c6ccccc6C(=O)O)C(C)(C)[C@@H]5CC[C@]43C)[C@@H]12 , tested on UACC-257 melanoma? 107% (inactive)

* * *

test system: CAKI-1 renal; test: NCI-60 one-dose screen, 48 h (100 = growth as untreated, 0 = no growth, -100 = all killed); conditions: 10 µM unless noted
About 83,000 compounds went through this panel and 20% of them were active in at least one assay; those are over-represented in the sample as a whole.
REPORTED METRIC: growth (%)
The reply should contain only the number, in %.

Some solved entries appear below for comparison.
{"COMPOUND": "O=C(CI)NC(=O)NC(=O)NCc1ccccc1", "REPORTED METRIC": "growth", "UNITS SYMBOL": "%", "EXPERIMENTAL RESULT": 5.31}
{"COMPOUND": "N#Cc1c(-c2ccccc2)nc(SCC(O)CN2CCOCC2)nc1N1CCOCC1 (centres undefined)", "REPORTED METRIC": "growth", "UNITS SYMBOL": "%", "EXPERIMENTAL RESULT": 37.4}
{"COMPOUND": "CN(CCCNC(=O)CCOCCOCCOCCNC(=O)Cc1ccc2ccc3cccc4ccc1c2c34)CCCNc1cc(-c2ccc3ccccc3c2)nc2ccccc12", "REPORTED METRIC": "growth", "UNITS SYMBOL": "%", "EXPERIMENTAL RESULT": -82.4}
{"COMPOUND": "Cc1ccc(-c2nc(SCc3nc4cc(Cl)c(Cl)cc4[nH]3)[nH]c(=O)c2C#N)cc1", "REPORTED METRIC": "growth", "UNITS SYMBOL": "%", "EXPERIMENTAL RESULT": 88.3}
{"COMPOUND": "CCOC(=O)CC1CSC(Nc2ccccc2)=N1 (centres undefined)", "REPORTED METRIC": "growth", "UNITS SYMBOL": "%", "EXPERIMENTAL RESULT": 103}
{"COMPOUND": "Oc1ccc(/C=C/c2ccc(O)cc2)cc1", "REPORTED METRIC": "growth", "UNITS SYMBOL": "%", "EXPERIMENTAL RESULT": 78.7}
{"COMPOUND": "C#CCO[C@H]1CC(CC#C)(CC#C)C(=O)[C@@H]2[C@H]1[C@H]1C[C@@H]3[C@@]4(C)CCC[C@@](C)(C(=O)OC)[C@@H]4CC[C@@]23C=C1C(C)C", "REPORTED METRIC": "growth", "UNITS SYMBOL": "%", "EXPERIMENTAL RESULT": 41}
{"COMPOUND": "N#Cc1nc(-c2ccccc2)oc1S(=O)(=O)N1CCN(c2ccc(F)cc2)CC1", "REPORTED METRIC": "growth", "UNITS SYMBOL": "%", "EXPERIMENTAL RESULT": 62.2}
{"COMPOUND": "Nc1nc(N)c2c(n1)NC(c1ccc(Cl)cc1)C1CCc3ccccc3C1=N2 (centres undefined)", "REPORTED METRIC": "growth", "UNITS SYMBOL": "%", "EXPERIMENTAL RESULT": 37}
{"COMPOUND": "COc1ccc(-c2n[nH]c(=O)c3nc(NC(=S)Nc4ccc(Oc5ccccc5)cc4)sc23)cc1", "REPORTED METRIC": "growth", "UNITS SYMBOL": "%", "EXPERIMENTAL RESULT": 87.3}

Recorded growth for N#Cc1ccc(O)c(C2=NCC(Cc3ccccc3)O2)c1 (centres undefined) , please? 12.9

Cited source: PubChem BioAssay (NCI)
